- target.of.assay: T1, IL-18 receptor (IL-18Rα and IL-18Rβ) (UniProt Q13478 19-541; O95256 20-599, limits assumed)
- T1 sequence (looked up) 1: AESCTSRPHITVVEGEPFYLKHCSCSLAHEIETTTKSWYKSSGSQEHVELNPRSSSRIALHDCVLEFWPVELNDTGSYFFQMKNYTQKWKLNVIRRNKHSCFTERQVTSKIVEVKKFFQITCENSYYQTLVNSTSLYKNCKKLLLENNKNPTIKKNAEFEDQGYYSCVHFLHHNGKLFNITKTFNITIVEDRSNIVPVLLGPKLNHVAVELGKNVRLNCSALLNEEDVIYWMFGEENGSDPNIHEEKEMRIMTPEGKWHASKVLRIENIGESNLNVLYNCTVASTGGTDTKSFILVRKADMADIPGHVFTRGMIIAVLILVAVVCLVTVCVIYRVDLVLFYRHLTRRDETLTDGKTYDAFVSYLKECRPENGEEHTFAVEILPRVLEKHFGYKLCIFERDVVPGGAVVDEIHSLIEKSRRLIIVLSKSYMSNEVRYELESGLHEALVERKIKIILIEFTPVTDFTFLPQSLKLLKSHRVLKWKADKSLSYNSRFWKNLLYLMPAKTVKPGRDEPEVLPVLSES
- T1 sequence (looked up) 2: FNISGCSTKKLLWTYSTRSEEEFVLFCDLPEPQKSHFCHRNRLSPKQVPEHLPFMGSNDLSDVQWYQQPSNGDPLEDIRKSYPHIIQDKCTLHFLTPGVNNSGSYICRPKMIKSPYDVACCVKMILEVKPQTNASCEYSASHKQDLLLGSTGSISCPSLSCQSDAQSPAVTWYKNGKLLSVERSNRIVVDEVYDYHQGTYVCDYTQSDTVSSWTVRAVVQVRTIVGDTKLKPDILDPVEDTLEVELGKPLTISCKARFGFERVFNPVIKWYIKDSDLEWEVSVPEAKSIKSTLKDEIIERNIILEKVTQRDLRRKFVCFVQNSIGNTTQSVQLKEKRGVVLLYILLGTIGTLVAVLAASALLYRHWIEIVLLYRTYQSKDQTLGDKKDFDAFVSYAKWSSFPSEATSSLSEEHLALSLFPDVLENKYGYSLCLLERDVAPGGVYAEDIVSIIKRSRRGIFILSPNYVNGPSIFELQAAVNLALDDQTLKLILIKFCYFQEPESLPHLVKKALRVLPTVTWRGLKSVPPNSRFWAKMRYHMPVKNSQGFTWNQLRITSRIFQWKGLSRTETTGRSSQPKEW
- experiment.notes: cell-based or functional assay
outcome.measure: EC50 (pM), PBMC IFN gamma assay, run 3
Numbers only, in pM.

Consider the worked cases shown below.
Notebook: hIL18 (G3V, E6K, K53S, M60K) - KiH (Fc fusion) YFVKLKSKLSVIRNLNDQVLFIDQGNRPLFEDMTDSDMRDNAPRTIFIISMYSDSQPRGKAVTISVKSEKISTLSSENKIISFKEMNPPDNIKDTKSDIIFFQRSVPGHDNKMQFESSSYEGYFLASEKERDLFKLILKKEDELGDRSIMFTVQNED , EC50 (pM), PBMC IFN gamma assay, run 3 read as 10.9

The reported value for hIL18 (G3T, E6K, K53S, M60K) - KiH (Fc fusion) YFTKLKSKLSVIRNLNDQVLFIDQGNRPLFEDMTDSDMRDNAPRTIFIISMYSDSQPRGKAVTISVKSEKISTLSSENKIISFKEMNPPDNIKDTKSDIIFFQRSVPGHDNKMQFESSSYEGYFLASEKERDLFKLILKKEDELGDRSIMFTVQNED in terms of EC50 (pM), PBMC IFN gamma assay, run 3 is 41.6

Now look at this one.
Looking up hIL18 (G3T, K53S, M60K) - KiH (Fc fusion) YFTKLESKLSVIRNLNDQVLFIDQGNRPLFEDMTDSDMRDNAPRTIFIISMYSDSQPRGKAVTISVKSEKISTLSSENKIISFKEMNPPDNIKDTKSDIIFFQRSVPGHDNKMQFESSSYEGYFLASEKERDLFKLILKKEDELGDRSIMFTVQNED , I see its EC50 (pM), PBMC IFN gamma assay, run 3 listed as 784
